Biological target: Jak3 (Homo sapiens, UniProt P52333)
Construct: Jak3 enzyme (aa 811-1103); GST
Sequence (P52333 811-1103): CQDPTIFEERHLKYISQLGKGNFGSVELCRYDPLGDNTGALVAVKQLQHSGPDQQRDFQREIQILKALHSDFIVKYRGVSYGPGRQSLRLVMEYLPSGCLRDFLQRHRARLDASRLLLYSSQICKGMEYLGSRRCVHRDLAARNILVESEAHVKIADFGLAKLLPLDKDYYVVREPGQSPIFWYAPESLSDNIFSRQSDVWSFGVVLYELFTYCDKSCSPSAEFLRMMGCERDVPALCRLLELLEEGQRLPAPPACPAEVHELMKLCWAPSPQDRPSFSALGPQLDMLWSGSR
Test: Jak3 enzyme data for selected compounds
quantityKind: IC50

- compound: "CC[C@@H]1C[C@H](Oc2cnc(C#N)cn2)C[C@H]1c1nnc2cnc3[nH]ccc3n12 (single isomer, unassigned)"
  system: "Jak3 (Homo sapiens, UniProt P52333)"
  IC50: "< 100 nM"
- compound: "C[C@@H]1CCN(c2ncc(C#N)s2)C[C@@H]1c1ncc2cnc3[nH]ccc3n12 (racemic) [L.1.4]"
  system: "Jak3 (Homo sapiens, UniProt P52333)"
  IC50: "< 100 nM"
- compound: "N#Cc1cnc(NC[C@H]2CC[C@@H](c3ncc4cnc5[nH]ccc5n34)C2)cn1"
  system: "Jak3 (Homo sapiens, UniProt P52333)"
  IC50: "100 to 1000 nM"

Continue with the next compound.
Report the value of IC50 obtained on Jak3 (Homo sapiens, UniProt P52333) for `C[C@@H]1C[C@H](Nc2cnc(C#N)cn2)C[C@@H]1c1ncc2cnc3[nH]ccc3n12` .
100 to 1000 nM
